# Tested on: NCI-H292 lung cancer cells
# ASSAY DETAILS: FDA drug screening, complete media vs cholesterol-free media without statin (TABLE 1)
# Type: cell-based, human
# CONDITION LABEL: NCI-H292 cells, complete media
Counter-ions that a name gives are not always drawn.
TEST READOUT: Complete
Just the number.

Consider the worked cases shown below.
COMPOUND	TEST READOUT	EXPERIMENTAL RESULT
COc1ccccc1OCC(O)CN1CCN(CC(=O)Nc2c(C)cccc2C)CC1 (stereo not shown) [Ranolazine (dihydrochloride)]	Complete	0.9194
c1ccc2c(c1)Sc1ccccc1N2CC1CN2CCC1CC2 (stereo not shown)	Complete	1.338
CN(C)[C@@H](CCOc1cccc2ccccc12)c1ccccc1 [Dapoxetine (hydrochloride)]	Complete	0.7794
CN1CCCC(CC2c3ccccc3Sc3ccccc32)C1 (stereo not shown) [Metixene hydrochloride hydrate]	Complete	1.044
COc1ccccc1OCC(O)CN1CCN(CC(=O)Nc2c(C)cccc2C)CC1 (stereo not shown) [Ranolazine]	Complete	1.359

Would you kindly look at the next entry?
q: Give the measured Complete of CN1CCc2c(c3ccccc3n2Cc2ccccc2)C1 [Mebhydrolin] .
a: 1.508
